So I've got a bunch of molecules here, and I need their cell viability values.
- System: MARIMO;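 also: after 48 h exposure read by CellTiter-Glo luminescence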
- experiment: cell viability relative to vehicle control; higher = less cytotoxic
- condition_label: 10 µM; SRSF2 genotype: SRSF2 wt/wt
Structures can show the parent of a compound that is named as a salt.
Give bare numbers, in %.

# example entries with known answers
{"molecule": "CS(=O)(=O)c1ccc([C@@H](O)[C@@H](CO)NC(=O)C(Cl)Cl)cc1", "target_under_test": "MARIMO", "property_measured": "cell viability", "unit_label": "%", "quantitative_readout": 101}
{"molecule": "CC1=C(C(=O)OCCN(Cc2ccccc2)c2ccccc2)C(c2cccc([N+](=O)[O-])c2)C(P2(=O)OCC(C)(C)CO2)=C(C)N1 (centres undefined)", "target_under_test": "MARIMO", "property_measured": "cell viability", "unit_label": "%", "quantitative_readout": 98.4}
{"molecule": "CCC(=O)O[C@]1(C(=O)CCl)[C@@H](C)C[C@H]2[C@@H]3C[C@H](F)C4=CC(=O)C=C[C@]4(C)[C@@]3(F)[C@@H](O)C[C@@]21C [Halobetasol Propionate]", "target_under_test": "MARIMO", "property_measured": "cell viability", "unit_label": "%", "quantitative_readout": 98.1}

Could you now look at the following molecule, please?
In: Find the recorded cell viability belonging to Oc1ccc(CC2NCCc3cc(O)c(O)cc32)cc1 (centres undefined) [Higenamine hydrochloride] and report it.
Out: 98.5

====

- Test system: MARIMO;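 also: after 48 h exposure read by CellTiter-Glo luminescence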
- experiment: cell viability relative to vehicle control; higher = less cytotoxic
- condition_label: 10 µM; SRSF2 genotype: SRSF2 P95H/wt
Where a name gives a salt, the structure may show the parent alone.
So I've got a bunch of compounds here, and I need their cell viability values.
Quick note: number first, unit second.

# example entries with known answers
{"compound": "Cn1cc(C(=O)[C@@H]2CCc3[nH]cnc3C2)c2ccccc21 [Ramosetron Hydrochloride]", "result": "91.2%"}
{"compound": "Cc1coc2c1C(=O)C(=O)c1c-2ccc2c1CCCC2(C)C [Tanshinone IIA (Tanshinone B)]", "result": "98.2%"}
{"compound": "COc1cc(/C=C/C(=O)N2CCN(CC(=O)N3CCCC3)CC2)cc(OC)c1OC [Cinepazide maleate]", "result": "99.5%"}
{"compound": "O=C(O)c1ccc(O)cc1 [4-Hydroxybenzoic acid]", "result": "93.4%"}
{"compound": "Cc1cc(O)c(-c2ccc([C@@H](C)CN(C)C)cc2)c2c1[nH]c(=O)c1sccc12", "result": "1.85%"}

Look up cell viability for the entries below, preserving their order.
1. OC[C@H]1O[C@@](CO)(OC[C@@]2(OC[C@@]3(OC[C@@]4(O[C@H]5O[C@H](CO)[C@@H](O)[C@H](O)[C@H]5O)O[C@H](CO)[C@@H](O)[C@@H]4O)O[C@H](CO)[C@@H](O)[C@@H]3O)O[C@H](CO)[C@@H](O)[C@@H]2O)[C@@H](O)[C@@H]1O [1F-Fructofuranosylnystose]
2. O=C(Nc1cccc2cccnc12)c1ccc(N2C(=O)C3C4C=CC(C4)C3C2=O)cc1 (stereo not drawn) [IWR-1-endo]
3. CO[C@H]1/C=C/O[C@@]2(C)Oc3c(C)c(O)c4c(O)c(c5c(nc6cc(C)ccn65)c4c3C2=O)NC(=O)/C(C)=C\C=C\[C@H](C)[C@H](O)[C@@H](C)[C@@H](O)[C@@H](C)[C@H](OC(C)=O)[C@@H]1C [Rifaximin (Xifaxan)]

Out:
1: 109%; 2: 100%; 3: 103%

Look up cell viability for the entries below, preserving their order.
1. O=c1c(-c2ccc(O)cc2)coc2cc(O[C@@H]3O[C@H](CO)[C@@H](O)[C@H](O)[C@H]3O)cc(O)c12 [Genistin (Genistoside)]
2. CC[C@H]1OC(=O)[C@@](C)(F)C(=O)[C@H](C)[C@@H](O[C@@H]2O[C@H](C)C[C@H](N(C)C)[C@H]2O)[C@](C)(OC)C[C@@H](C)C(=O)[C@H](C)[C@H]2N(CCCCn3cc(-c4cccc(N)c4)nn3)C(=O)O[C@]12C [Solithromycin]
3. CC(C)[C@H]1CC[C@H](C(=O)N[C@H](Cc2ccccc2)C(=O)O)CC1 [Nateglinide (Starlix)]
4. O=c1c(N=Nc2nccs2)c(-c2ccccc2)[nH]n1-c1nc(-c2ccccc2)cs1

Out:
1. 94.6%
2. 107%
3. 97.8%
4. 94.2%

Look up cell viability for the entries below, preserving their order.
1. Cn1nnnc1SCC1=C(C(=O)O)N2C(=O)[C@@H](NC(=O)[C@H](OC=O)c3ccccc3)[C@H]2SC1 [S3638 Cefamandole (nafate).cdx]
2. Cc1c(C(C)C)c(=O)n(-c2ccccc2)n1C [Propyphenazone (4-Isopropylantipyrine)]
3. CC(=O)OC(C)(C)CCC(=O)[C@](C)(O)[C@H]1[C@H](O)C[C@@]2(C)[C@@H]3CC=C4[C@@H](C[C@H](O)[C@@H](O)C4(C)C)[C@]3(C)C(=O)C[C@]12C [Curcurbitacin IIA]
4. COc1cc(C)c(/C=C/C(C)=C/C=C/C(C)=C/C(=O)O)c(C)c1C [Acitretin]
5. COc1cc(OC)c(NC(=O)Nc2cc(C)on2)cc1Cl

Out:
1: 97.5%; 2: 94%; 3: 80.9%; 4: 79.1%; 5: 86.4%

Look up cell viability for the entries below, preserving their order.
1. CC1CCC2(OC1)OC1CC3C4CCC5CC(OC6OC(CO)C(O)C(O)C6OC6OC(CO)C(O)C(O)C6O)CCC5(C)C4CCC3(C)C1C2C (stereo not drawn) [Timosaponin A3]
2. COC(=O)C1=C(C#N)NC(C)=C(C(=O)OC(C)C)C1c1cccc([N+](=O)[O-])c1 (stereo not drawn) [Nilvadipine (ARC029)]
3. O=S(=O)(O)c1cc(O)ccc1O [Calcium Dobesilate]
4. O=c1cc(-c2ccc(O)cc2)oc2cc(O)c(O)c(O)c12 [Scutellarein]
5. C#Cc1cccc(Nc2ncnc3cc(OCCOC)c(OCCO)cc23)c1 [OSI-420 (Desmethyl Erlotinib)]
6. CC1=C(/C=C/C(C)=C/C=C/C(C)=C\C(=O)O)C(C)(C)CCC1 [Isotretinoin]
7. CCN(CCCc1ccccc1)CCCc1ccccc1 [Alverine Citrate]

Out:
["3.39%", "76%", "103%", "102%", "53.9%", "69.3%", "69.5%"]

Look up cell viability for the entries below, preserving their order.
1. C[C@H](CCC(=O)O)[C@H]1CC[C@H]2[C@@H]3CC[C@@H]4C[C@H](O)CC[C@]4(C)[C@H]3CC[C@]12C [Lithocholic acid]
2. O=C(COc1ccc(C(=O)c2ccccc2)cc1)NC1CCN(Cc2ccccc2)CC1 [Adiporon]
3. Cn1c(=O)cc(C(=O)Nc2ccc3c(c2)OCCO3)c2ccccc21
4. CC(C)(O)CNc1nc(Nc2ccnc(C(F)(F)F)c2)nc(-c2cccc(C(F)(F)F)n2)n1 [AG-221 (Enasidenib)]

Out:
1. 106%
2. 57.4%
3. 99%
4. 93.1%
